molecular target: monomeric alpha-synuclein, P37840; assay: SPR, captured mAb; settings: remark: other sources report otherwise
Listing of entries alongside the reported Kd.
The figure you give is taken to be in nM; do not add the unit.

Some entries whose results are on file:
ACI-7079-2606A6-Ab2 (antibody, V domains shown) VH: QVQLQQSGPELVKPGASVKISCKASGFAFSSSWMNWVKQRPGKGLEWVGRIFPGDGDTNYDRKFKDKATLTADKSSSTAYMQLSSLTSEDSAVYFCARWTGGYDWFAYWGQGTLVTVSA VL: DIVLTQSPASLAVSLGQRATISCRASQSVSTSNYNYLHWYQQKPGQPPKLLITYASNLESGVPARFSGSGSGTDFTLNIHPVEEGDTATYYCQHSWEIPLTFGAGTKLELK    4.8
ACI-8033-1A12-Ab1 (antibody, V domains shown) VH: QVHLKQSGADLVRPGASVKLSCKASGYSFTDFYINWVKQTPGQGLEWIARIYPGNNNTFYNEKFKGKATLSAEKSSTTAYMQLSSLTSEDSAVYFCVVGYYGAWGQGTTLTVSS VL: DVVMTQTPLSLPVSLGDQASISCRSSQSLVHSNGNTHLHWYLQKPGQSPKLLIYKVSNRFSGVPDRFSGSGSGTDFTLKISRVEAEDLGFYFCSQSTHVPWTFGGGTKLEIK    31.9
ACI-7088-4303A1-Ab1 (antibody, V domains shown) VH: EVQLQQSGAELVRPGASVKLSCTASGFNIKDDYMHWVKQRPEQGLEWIGWIDPENGDSEYASKFQGKATMTADTSSNTAYLQLSSLTSEDTAVYYCKTWGTAQALFPYWGQGTLVTVSA VL: DIVMTQSQKFMSTSVGDRVSITCKASQNVGTSVGWYQQKAGQSPKLLIHSASNRYTGVPDRFTGSGSGTDFTLTINNMQSEDLADYFCQQYRSYPLTFGAGTKLELK    37.1
ACI-7067-1111B12-Ab2 (antibody, V domains shown) VH: QVQLLQPGTALVMPGASVKLSCKASGYTFTTYWMHWVKQRPGQGLEWIGNINPINGGSNYNEKFKSKASLTVDKSSSTAYMQLSSLTSEDSAVYYCVIAMDYWGQGTSVTVSS VL: DIQMTQSPSSLSASLGERVSLTCRASQDIGISLNWFQQEPDGTIKRLIYATSSLDSGVPKRFSGNRSGSDYSLTISSLESEDFADYYCLQFASSPLTFGAGTKLELK    8.1
ACI-7079-2501G2-Ab2 (antibody, V domains shown) VH: EVQLVESGGGLVQPKGSLKLSCAASGFNFNTYAMNWVRQAPGKGLEWVARIRTKSNNFATYYAHSVKDRFTISRDDSESMLYLQMNNLKTEDTAMYYCVRQGLAYYAMDYWGQGTSVTVSS VL: DVLMTQTPLSLPVSLGDQVSISCRSSQTIVHSNGNTYLEWYLQKPGQSPKLLIYKVSNRFSGVPDRFSGSGSGTDFTLKISRVEAEDLGVYYCFQGSQGPLTFGAGTKLELK    2.9

stdin: If you can, please state the reported Kd value of ACI-8033-4F3-Ab1 (antibody, V domains shown) VH: EVQLQQSGPELVKPGASVKISCKASGYTFTDYYMNWVKQSHGKSLEWIGDINPNTGTNSYNQKFKGRASLTVDKFSSAAYMELRSLTSEDSAVYYCARTGYGDPISSYYYALDYWGQGTSVTVSS VL: DIVMSQSPSSLAVSAGEKVTMSCKSSQSLLNSRTRKNYLAWYQQKPGQSPKLLIYWASTRESGVPDRFTGSGSGTDFTLTISSVQAEDLAVYYCKQSYNLWTFGGGTKLEIK .
stdout: 1.7
